# system: SARS-CoV-2 3CL Protease (Severe acute respiratory syndrome coronavirus 2)
# assay-comment: 3CL protease SARS-CoV-2 activity (M^Pro assay), fluorescence kit
# Assay type: biochemical
# experimental-conditions: Conc. 100; ∆T 30; positive control 100
Quick reference: ∆RFU of the listed items.
Field format: numeric only.

compound	∆RFU
O=c1cc(-c2ccc(O)cc2)oc2c([C@@H]3O[C@H](CO)[C@@H](O)[C@H](O)[C@H]3O)c(O)cc(O)c12 [Compound 3, vitexin]	38.95
C[C@@H]1O[C@@H](OC[C@H]2O[C@@H](Oc3c(-c4ccc(O)c(O)c4)oc4cc(O)cc(O)c4c3=O)[C@H](O)[C@@H](O)[C@@H]2O)[C@H](O)[C@H](O)[C@H]1O [Compound 4, rutin]	26.92
Oc1cc(O)c2c(c1)O[C@H](c1ccc(O)c(O)c1)[C@@H](O)C2 [Compound 6, catechin]	27.75

∆RFU recorded for this compound, O=c1cc(-c2ccc(O)c(-c3c(O)cc(O)c4c(=O)cc(-c5ccc(O)cc5)oc34)c2)oc2cc(O)cc(O)c12 [Compound 2, amentoflavone] , is 37.02

// field: ∆RFU; key: O=C(O)c1cc(O)c(O)c(O)c1 [Compound 8, gallic acid] ; value = 24.86

Input O=C(O)/C=C/c1ccc(O)cc1 [Compound 7, p-coumaric acid] . Output ∆RFU: 35.06

Form: compound = CC1=CC(=O)c2c(O)cccc2C1=O [Plumbagin, reference compound] ; ∆RFU = 22.52

C[C@@H]1O[C@@H](O[C@H]2[C@H](Oc3cc(O)c4c(c3)O[C@H](c3ccc(O)cc3)CC4=O)O[C@H](CO)[C@@H](O)[C@@H]2O)[C@H](O)[C@H](O)[C@H]1O [Compound 5, naringin] yielded ∆RFU of 21.52
